Target: Calcium-activated potassium channel subunit alpha-1 (Homo sapiens) (UniProt Q12791)
Sequence (Q12791 whole entry): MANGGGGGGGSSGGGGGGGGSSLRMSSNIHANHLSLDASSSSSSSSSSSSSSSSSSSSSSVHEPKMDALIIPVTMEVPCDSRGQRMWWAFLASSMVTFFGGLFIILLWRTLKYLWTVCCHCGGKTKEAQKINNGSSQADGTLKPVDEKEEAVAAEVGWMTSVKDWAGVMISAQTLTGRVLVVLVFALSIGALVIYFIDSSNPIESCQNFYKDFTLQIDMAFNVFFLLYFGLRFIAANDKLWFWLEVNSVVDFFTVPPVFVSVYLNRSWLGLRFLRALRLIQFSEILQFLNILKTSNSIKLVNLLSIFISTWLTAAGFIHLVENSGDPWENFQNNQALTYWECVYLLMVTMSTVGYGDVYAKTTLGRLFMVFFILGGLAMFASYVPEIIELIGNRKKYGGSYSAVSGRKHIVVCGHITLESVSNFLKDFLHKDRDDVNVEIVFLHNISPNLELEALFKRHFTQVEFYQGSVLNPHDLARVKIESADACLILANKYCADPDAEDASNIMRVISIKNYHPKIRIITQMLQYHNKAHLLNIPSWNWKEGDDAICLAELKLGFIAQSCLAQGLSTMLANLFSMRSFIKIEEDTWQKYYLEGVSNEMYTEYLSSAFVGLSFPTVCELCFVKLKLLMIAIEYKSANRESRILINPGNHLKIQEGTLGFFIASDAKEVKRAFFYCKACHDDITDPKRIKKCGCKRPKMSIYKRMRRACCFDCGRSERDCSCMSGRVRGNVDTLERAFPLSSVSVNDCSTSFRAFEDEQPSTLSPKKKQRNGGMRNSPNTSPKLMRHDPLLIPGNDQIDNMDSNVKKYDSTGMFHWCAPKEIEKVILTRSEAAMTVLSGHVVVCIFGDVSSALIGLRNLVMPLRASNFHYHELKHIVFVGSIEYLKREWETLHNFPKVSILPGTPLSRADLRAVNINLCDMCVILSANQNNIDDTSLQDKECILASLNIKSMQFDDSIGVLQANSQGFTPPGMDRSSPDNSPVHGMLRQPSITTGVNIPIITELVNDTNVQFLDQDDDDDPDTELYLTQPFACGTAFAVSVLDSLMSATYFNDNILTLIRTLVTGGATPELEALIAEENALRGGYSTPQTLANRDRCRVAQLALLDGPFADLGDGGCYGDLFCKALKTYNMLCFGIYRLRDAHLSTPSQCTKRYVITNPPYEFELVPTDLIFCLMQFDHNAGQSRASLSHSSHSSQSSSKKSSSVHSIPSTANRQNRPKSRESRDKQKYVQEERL
Assay: The compound was tested for maxi-K channel opening property at concentration of 20 uM, activity expressed as percentage of current
VALUE KIND: Maxi-K current, % of control (%)

Here are 4 molecules together with their reported answers.
QUERY SMILES	DISPLAY UNIT	Maxi-K current, % of control
CC(=O)Nc1ccc(O)c(C(=O)/C=C/c2ccccc2)c1	%	81.5
O=C(/C=C/c1ccccc1)c1ccccc1	%	82.4
O=c1[nH]c2cc(C(F)(F)F)ccc2n1-c1cc(Cl)ccc1O	%	132
O=C(CCc1ccc(O)cc1)c1c(O)cc(O)cc1O	%	120

(1) O=c1c(O)c(-c2ccc(O)cc2)oc2cc(O)cc(O)c12
(2) O=c1cc(-c2ccccc2)oc2ccccc12
Q. Which has the smaller recorded Maxi-K current, % of control, 1 or 2 ? Kindly state the label of the option you pick.
A. 2
(2: 103%, 1: 167%)

----------
Target: Calcium-activated potassium channel subunit alpha-1 (Homo sapiens) (UniProt Q12791)
Experiment: The compound was tested for maxi-K channel opening property at concentration of 20 uM, activity expressed as percentage of current
VALUE KIND: Maxi-K current, % of control (%)

QUERY SMILES	Maxi-K current, % of control, %
COc1cc(OC)c2c(=O)c(OC)c(-c3ccc(OC)c(OC)c3)oc2c1	94.6

(a) O=c1cc(-c2ccc(O)cc2)oc2cc(O)cc(O)c12
(b) O=C(/C=C/c1cccc([N+](=O)[O-])c1)c1ccccc1O
Q. Pick one: a or b . Which has the bigger Maxi-K current, % of control number? Kindly state the label of the option you pick.
A. a
(a: 159%, b: 74.4%)

These data points were gathered from ChEMBL document CHEMBL1151609.
